test system: AsPC-1 (K-Ras G12D); experiment: CellTiter-Glo cell viability assay, AsPC-1; type: cell-based; details: Homo sapiens, ASPC1, 120 h, read-out: AsPC-1 Cell Viability IC50, AsPC-1, K-Ras G12D, 5-day treatment
pIC50: −log10 of the molar value.
The entries below come with measured pIC50 values attached.

CCn1c(-c2cccnc2[C@H](C)OC)c2c3cc(ccc31)-c1cc(O)cc(c1)C[C@H](NC(=O)[C@H](C(C)C)N(C)C(=O)CN(C)C(=O)[C@@]1(C)CN1)C(=O)N1CCC[C@H](N1)C(=O)OCC(C)(C)C2 [Compound 256] : 6.00 to 7.00
CCn1c(-c2cnccc2COC)c2c3cc(ccc31)-c1cc(O)cc(c1)C[C@H](NC(=O)[C@H](C(C)C)N(C)C(=O)CN(C)C(=O)[C@@H]1N[C@@H]1C)C(=O)N1CCC[C@H](N1)C(=O)OCC(C)(C)C2 [Compound 105] : 5.00 to 6.00
CCn1c(-c2cccnc2[C@H](C)OC)c2c3cc(ccc31)-c1cc(O)cc(c1)C[C@H](NC(=O)[C@H](C(C)C)N(C)C(=O)CN(C)C(=O)[C@H]1CN1)C(=O)N1CCC[C@H](N1)C(=O)OCC(C)(C)C2 [Compound 42A] : 6.00 to 7.00
CCn1c(-c2cnccc2COC)c2c3cc(ccc31)-c1cc(O)cc(c1)C[C@H](NC(=O)[C@H](C(C)C)N(C)C(=O)CN(C)C(=O)[C@H]1N[C@H]1C(=O)OC)C(=O)N1CCC[C@H](N1)C(=O)OCC(C)(C)C2 [Compound 51] : < 5.00

Now, please, on to the next molecule.
What does the record list as pIC50 for CCn1c(-c2cccnc2[C@H](C)OC)c2c3cc(ccc31)-c1cc(O)cc(c1)C[C@H](NC(=O)[C@H](C(C)C)N(C)C(=O)CN(C)C(=O)[C@@H]1N[C@H]1COC)C(=O)N1CCC[C@H](N1)C(=O)OCC(C)(C)C2 [Compound 85] ?
5.00 to 6.00

###

The entries below come with measured pIC50 values attached.
biological target: KRAS G12D (Homo sapiens, UniProt P01116+P62937, G12D); experiment: Ras-Raf disruption/FRET/MOA assay, KRAS G12D; format: biochemical; details: disruption of BRAF RBD binding, with Cyclophilin A; read-out: KRAS G12D FRET IC50
Sequence (P01116 1-169 isoform P01116-2 G12D limits assumed): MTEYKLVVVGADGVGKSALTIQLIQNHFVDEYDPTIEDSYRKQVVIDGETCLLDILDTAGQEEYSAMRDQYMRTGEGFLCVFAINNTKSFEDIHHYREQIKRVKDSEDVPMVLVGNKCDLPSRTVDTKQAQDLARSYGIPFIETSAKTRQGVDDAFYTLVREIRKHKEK
Sequence (P62937 whole entry): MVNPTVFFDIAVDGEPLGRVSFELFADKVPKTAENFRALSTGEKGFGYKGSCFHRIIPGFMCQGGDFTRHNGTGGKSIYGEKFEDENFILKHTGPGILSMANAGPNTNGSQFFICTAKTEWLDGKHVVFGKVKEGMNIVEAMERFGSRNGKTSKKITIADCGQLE
pIC50: −log10 of the molar value.

What does the record list as pIC50 for CCn1c(-c2cnccc2COC)c2c3cc(ccc31)-c1cc(O)cc(c1)C[C@H](NC(=O)[C@H](C(C)C)N(C)C(=O)CN(C)C(=O)[C@H]1[C@@H](C)N1[S@+]([O-])C(C)(C)C)C(=O)N1CCC[C@H](N1)C(=O)OCC(C)(C)C2 (stereo partly drawn) ?
6.00 to 7.00

What does the record list as pIC50 for CCn1c(-c2cccnc2[C@H](C)OC)c2c3cc(ccc31)-c1cc(O)cc(c1)C[C@H](NC(=O)[C@H](C(C)C)N1CCCC3(CN(C(=O)[C@@H]4CN4)C3)C1=O)C(=O)N1CCC[C@H](N1)C(=O)OCC(C)(C)C2 ?
6.00 to 7.00

What does the record list as pIC50 for CCn1c(-c2cc(N3CCN(C)CC3)cnc2[C@H](C)OC)c2c3cc(ccc31)-c1csc(n1)C[C@H](NC(=O)[C@H](C1CCCC1)N1CC[C@]3(CCN(C(=O)[C@@H]4N[C@@H]4C4CC4)C3)C1=O)C(=O)N1CCC[C@H](N1)C(=O)OCC(C)(C)C2 ?
6.00 to 7.00
